What MIC was measured for each of the following?
Test system: Salmonella typhi
Test: Antimicrobial activity against Salmonella typhi ATCC 23564 after 24 hrs by broth micro serial dilution method
Type: functional, Salmonella enterica subsp. enterica serovar Typhi
Conditions: Salmonella enterica, ATCC 23564, 24 h
Hi! Could you send only the number? It should be in µM, unit omitted.

Query: # returns recorded MIC (system: Salmonella typhi) for `COc1cc(/C=C/C(O)=C/C(/C=C/c2ccc(O)c(OC)c2)=N/c2ccc(S(=O)(=O)Nc3ccccn3)cc2)ccc1O`
Result: 20

Query: Find MIC (Salmonella typhi) for the entry `COc1cc(/C=C/C(CC(/C=C/c2ccc(O)c(OC)c2)=N/c2ccc(S(=O)(=O)Nc3ccccn3)cc2)=N\c2ccc(S(=O)(=O)Nc3ccccn3)cc2)ccc1O`
Result: 40

Query: Entry `COc1ccc(NS(=O)(=O)c2ccc(/N=C(/C=C(O)/C=C/c3ccc(O)c(OC)c3)\C=C\c3ccc(O)c(OC)c3)cc2)nn1` , system Salmonella typhi: what MIC was measured?
Result: 20

Query: // lookup MIC | system=Salmonella typhi | key= `COc1cc(/C=C/C(CC(/C=C/c2ccc(O)c(OC)c2)=N/c2ccc(S(=O)(=O)Nc3nc(C)cc(C)n3)cc2)=N\c2ccc(S(=O)(=O)Nc3nc(C)cc(C)n3)cc2)ccc1O`
Result: 40

Query: Notebook entry, Salmonella typhi assay: MIC of `COc1cc(/C=C/C(CC(/C=C/c2ccc(O)c(OC)c2)=N/c2ccc(S(=O)(=O)Nc3cc(C)on3)cc2)=N\c2ccc(S(=O)(=O)Nc3cc(C)on3)cc2)ccc1O` = ?
Result: 40
